Examples of molecules with documented inhibition at 10 µM follow.
Test system: RAW264.7
Test: Antiinflammatory activity against mouse RAW264.7 cells assessed as inhibition of LPS-induced nitric oxide production at 10 uM after 24 hrs by Griess assay relative to control
Assay type: functional
Settings: RAW264.7, 24 h
Reply with just the number (in %).

Some solved entries appear below for comparison.
[[record]]
smiles_representation = "CC(C)=CCc1c(O)ccc([C@@H]2COc3c(ccc(O)c3CC=C(C)C)C2)c1O"
unit_abbreviation = "%"
reported = 15.7

[[record]]
smiles_representation = "CC1(C)C=Cc2c(ccc3c2OC[C@H]2c4ccc(O)cc4O[C@@H]32)O1"
unit_abbreviation = "%"
reported = 4.1

[[record]]
smiles_representation = "O=C(/C=C/c1ccc(O)cc1)c1ccc(O)cc1O"
unit_abbreviation = "%"
reported = 21

[[record]]
smiles_representation = "CC(C)=CCc1cc(/C=C/C(=O)c2ccc3c(c2O)C=CC(C)(C)O3)ccc1O"
unit_abbreviation = "%"
reported = 7.2

[[record]]
smiles_representation = "CC1(C)C=Cc2cc3c(cc2O1)OCC(c1ccc(O)c2c1OC(C)(C)C=C2)=C3"
unit_abbreviation = "%"
reported = 2.6


**Q:** Returns the measured inhibition at 10 µM for the input molecule. Input: CC(C)=CCc1cc(/C=C/C(=O)c2ccc(O)cc2O)ccc1O
**A:** 31.6

**Q:** Entry CC1(C)C=Cc2cc([C@@H]3CC(=O)c4ccc5c(c4O3)C=CC(C)(C)O5)ccc2O1 : reported inhibition at 10 µM = ?
**A:** 6.9

**Q:** What inhibition at 10 µM value was documented for this molecule, COc1ccc(-c2coc3cc(O)ccc3c2=O)cc1 ?
**A:** 0

**Q:** Endpoint output: inhibition at 10 µM of CC(C)=CCc1cc([C@@H]2CC(=O)c3ccc(O)cc3O2)ccc1O . Value?
**A:** 10.5

**Q:** What measured inhibition at 10 µM goes with CC(C)=CCc1c(O)cc(O)c2c(=O)c(-c3ccc(O)cc3)coc12 ?
**A:** 1.5

**Q:** What value of inhibition at 10 µM has been recorded for this entry: CC(C)=CCc1cc2c(cc1O)OCC(c1ccc(O)c3c1OC(C)(C)C=C3)=C2
**A:** 36
